system: Panel prostate (Carcinoma cell lines); test: Anticancer activity against prostate cancer cell lines of NCI60 panel; assay type: functional; settings: Homo sapiens
Structures can show the parent of a compound that is named as a salt.
Examples of compounds with documented log10 of GI50 follow.
QUANTITY: log10 of GI50 (log10 of the value in µM)

>  <COMPOUND>
COc1cc(/C=C2/C(=O)Nc3ccc(O)cc32)cc(OC)c1OC

>  <log10 of GI50>
0.38

$$$$
>  <COMPOUND>
CC[C@]1(O)C[C@H]2CN(CCc3c([nH]c4ccccc34)[C@@](C(=O)OC)(c3cc4c(cc3OC)N(C=O)[C@H]3[C@@](O)(C(=O)OC)[C@H](OC(C)=O)[C@]5(CC)C=CCN6CC[C@]43[C@@H]65)C2)C1 [VINCRISTINE SULFATE]

>  <log10 of GI50>
-0.90

$$$$
>  <COMPOUND>
COc1cc(/C=C2/C(=O)N(C)c3ccccc32)cc(OC)c1OC

>  <log10 of GI50>
1.02

$$$$
>  <COMPOUND>
COc1cc(/C=C2/C(=O)Nc3ccc(F)cc32)cc(OC)c1OC

>  <log10 of GI50>
1.44

$$$$
>  <COMPOUND>
COc1cc(/C=C2/C(=O)Nc3ccc(Cl)cc32)cc(OC)c1OC

>  <log10 of GI50>
0.47

$$$$
>  <COMPOUND>
COc1ccc2c(c1)/C(=C\c1cc(OC)c(OC)c(OC)c1)C(=O)N2

>  <log10 of GI50>
-0.16

$$$$
>  <COMPOUND>
COc1cc(/C=C2/C(=O)Nc3ccccc32)cc(OC)c1OC

>  <log10 of GI50>
1.27

$$$$
>  <COMPOUND>
COc1cc(/C=C2/C(=O)N(c3ccccc3)c3ccccc32)cc(OC)c1OC

>  <log10 of GI50>
0.50

$$$$

---

system: Panel colon (Carcinoma cell lines); test: Anticancer activity against colon cancer cell lines of NCI60 panel; assay type: functional; conditions: Homo sapiens, read-out: pTGI (converted)
Counter-ions that a name gives are not always drawn.

>  <COMPOUND>
COc1cc(/C=C2/C(=O)N(c3ccccc3)c3ccccc32)cc(OC)c1OC

>  <TGI>
26.9 µM

$$$$
>  <COMPOUND>
COc1cc(/C=C2/C(=O)Nc3ccccc32)cc(OC)c1OC

>  <TGI>
75.9 µM

$$$$
>  <COMPOUND>
CC[C@]1(O)C[C@H]2CN(CCc3c([nH]c4ccccc34)[C@@](C(=O)OC)(c3cc4c(cc3OC)N(C=O)[C@H]3[C@@](O)(C(=O)OC)[C@H](OC(C)=O)[C@]5(CC)C=CCN6CC[C@]43[C@@H]65)C2)C1 [VINCRISTINE SULFATE]

>  <TGI>
3.98 µM

$$$$
>  <COMPOUND>
COc1cc(/C=C2/C(=O)Nc3ccc(Cl)cc32)cc(OC)c1OC

>  <TGI>
93.3 µM

$$$$
>  <COMPOUND>
COc1cc(/C=C2/C(=O)Nc3ccc(O)cc32)cc(OC)c1OC

>  <TGI>
47.9 µM

$$$$
>  <COMPOUND>
COc1cc(/C=C2/C(=O)N(C)c3ccccc32)cc(OC)c1OC

>  <TGI>
61.7 µM

$$$$
>  <COMPOUND>
COc1ccc2c(c1)/C(=C\c1cc(OC)c(OC)c(OC)c1)C(=O)N2

>  <TGI>
32.4 µM

$$$$
